System: K562
Method Description: NCI tumour cell line growth inhibition, 48 h
Activity calls are given as the source filed them. Cut-off read from the data, not from the text of the source: active = GI50 up to about 1.1 µM and inactive = higher.

Molecule: CN(C)C(=O)Oc1ccc[n+](C)c1 [PYRIDOSTIGMINE BROMIDE]
GI50: > 100 µM (inactive)
--
Molecule: COc1cc(C2S/C(=C/c3ccccc3)C(=O)N2c2cccc(Cl)c2)cc(OC)c1OC (stereo unspecified)
GI50: 21.1 µM (inactive)
--
Molecule: Cc1nc(/C(=N\n2cnnc2)Nc2ccc(Br)cc2)no1
GI50: 57.1 µM (inactive)
--
Molecule: Cc1c(-c2ccccc2)nn2cc(-c3ccccc3)nnc12
GI50: 31 µM (inactive)
--
Molecule: CCOP(=O)(O)CC1OC(CO)C(O)C1O (stereo unspecified)
GI50: > 100 µM (inactive)
--
Molecule: N#CC(C#N)=C1SCC(=O)CS1
GI50: > 100 µM (inactive)
